Test system: A375M cells
test method notes: Sensitization of A375M cells to BCNU (MTT assay)
Format: cell-based, human
condition set: inactivator 5.0uM 2 hours before
measured metric: A375M sensitization (D50.^C/D50.^I) 5.0uM
Field format: numeric only.

compound: Nc1nc(OCc2cccs2)c2nc[nH]c2n1
quantitative result: 3.5

compound: Nc1nc(OCc2ccsc2)c2nc[nH]c2n1
quantitative result: 4.6

compound: Nc1nc(OCc2ccco2)c2nc[nH]c2n1
quantitative result: 2.5

compound: Nc1nc(OCc2ccc3c(c2)OCO3)c2nc[nH]c2n1
quantitative result: 2.5

Okay, now this compound:
Recorded A375M sensitization (D50.^C/D50.^I) 5.0uM for C=CCOc1nc(N)nc2[nH]cnc12 [O^6-allylguanine, reference compound] , please?
1.9

###

system under test: ATase (Rattus norvegicus)
Construct: endogenous in cells; host or cells: Yoshida
Sequence (P24528 1-209): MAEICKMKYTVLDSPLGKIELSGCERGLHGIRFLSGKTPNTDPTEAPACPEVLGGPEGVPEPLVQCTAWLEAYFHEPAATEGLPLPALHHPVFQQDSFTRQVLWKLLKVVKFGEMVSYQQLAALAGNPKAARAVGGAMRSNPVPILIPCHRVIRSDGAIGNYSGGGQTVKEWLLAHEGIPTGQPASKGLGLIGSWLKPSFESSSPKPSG
test method notes: Inactivation of ATase activity in Yoshida cells
Assay type: cell-based
condition set: Rat Yoshida cells, 2 hours at 37°C; read-out: Inactivation of ATase in Mammalian Cells I50(µM) Rat Yoshida
measured metric: IC50 (µM)
Please respond with the number in µM and leave the unit unwritten.

Recorded IC50 for Nc1nc(OCc2ccco2)c2nc[nH]c2n1 [B.4203, O^6-furfurylguanine] , please?
0.06

###

selectivity ratio: recorded values
test method notes: Growth inhibition of Xeroderma pigmentosum cells by inactivator alone
Format: cell-based, human
condition set: human, xeroderma pigmentosum cells; Figs 5 & 6; read-out: toxic concentrations in XP cells relative to those at which sensitization to BCNU was observed

smiles input: Nc1nc(OCc2cccs2)c2nc[nH]c2n1
selectivity ratio: ≥ 100

Attention now turns to another entry.
Tell me the measured selectivity ratio of Nc1nc(OCc2ccco2)c2nc[nH]c2n1 , please.
≥ 100

###

test method notes: Stability of inactivators at 37°C (spectrophotometric half life)
Type: physicochemical
condition set: 0.1mM in buffer I (1mM EDTA, 50mM Tris pH 8.3), read-out: T1/2(h) in Buffer I (converted)
measured metric: half-life at 100 µM

# example entries with known answers
compound: Nc1nc(OCc2ccsc2)c2nc[nH]c2n1
measured metric: half-life at 100 µM
result: > 80 h

compound: Nc1nc(OCc2ccccc2)c2nc[nH]c2n1 [O^6-benzylguanine, reference compound]
measured metric: half-life at 100 µM
result: > 64 h

Now for another entry.
Quick check: half-life at 100 µM of C=CCOc1nc(N)nc2[nH]cnc12 [O^6-allylguanine, reference compound] ?
> 64 h
